experiment: Water solubility (H2O sol); settings: H2O sol
PROPERTY: solubility (µg/mL)
Please state the figure in µg/mL; there is no need to write the unit.

For this molecule ( C[C@]12CC[C@H]3[C@@H](CCC4=CC(=O)CC[C@@]43C)[C@@H]1CC[C@@H]2OC(=O)Oc1ccc(CC[N+](C)(C)C)cc1 ), measured solubility is 100

Measured solubility, C[C@]12CC[C@H]3[C@@H](CCC4=CC(=O)CC[C@@]43C)[C@@H]1CC[C@@H]2OC(=O)C[N+](C)(C)C : 10000

// recorded solubility for C[C@]12CC[C@H]3[C@@H](CCC4=CC(=O)CC[C@@]43C)[C@@H]1CC[C@@H]2OC(=O)CC[N+](C)(C)C : 300

Notebook: C[C@]12CC[C@H]3[C@@H](CCC4=CC(=O)CC[C@@]43C)[C@@H]1CC[C@@H]2OC(=O)CCC[N+](C)(C)C , solubility read as 20000

Briefly, solubility measured for CC(=O)OC(CC(=O)O[C@H]1CC[C@H]2[C@@H]3CCC4=CC(=O)CC[C@]4(C)[C@H]3CC[C@]12C)C[N+](C)(C)C (stereo partly drawn) : 22000

Entry C[C@]12CC[C@H]3[C@@H](CCC4=CC(=O)CC[C@@]43C)[C@@H]1CC[C@@H]2OC(=O)OCC[N+](C)(C)C , solubility reported as 4000
